targetOrSystem: mP2X7 (Mus musculus (Mouse), UniProt Q9Z1M0)
Sequence (Q9Z1M0 whole entry): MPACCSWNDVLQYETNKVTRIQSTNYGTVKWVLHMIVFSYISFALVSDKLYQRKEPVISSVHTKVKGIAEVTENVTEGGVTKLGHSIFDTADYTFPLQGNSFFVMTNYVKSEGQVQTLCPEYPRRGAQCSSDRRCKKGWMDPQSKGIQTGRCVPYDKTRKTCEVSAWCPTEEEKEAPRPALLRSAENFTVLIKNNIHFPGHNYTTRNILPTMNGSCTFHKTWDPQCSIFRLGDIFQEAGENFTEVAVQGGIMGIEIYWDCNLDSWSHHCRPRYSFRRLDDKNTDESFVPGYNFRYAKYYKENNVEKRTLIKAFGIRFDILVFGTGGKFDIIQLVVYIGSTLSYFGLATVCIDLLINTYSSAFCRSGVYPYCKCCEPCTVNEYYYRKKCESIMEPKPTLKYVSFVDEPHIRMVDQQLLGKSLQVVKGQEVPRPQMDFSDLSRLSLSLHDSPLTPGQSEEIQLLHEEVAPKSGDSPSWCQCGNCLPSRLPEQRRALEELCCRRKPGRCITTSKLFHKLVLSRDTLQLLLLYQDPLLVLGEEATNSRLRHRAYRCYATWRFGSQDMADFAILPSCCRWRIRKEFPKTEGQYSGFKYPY
testDetails: mP2X7 channel calcium-influx assay (Fluo-8 NW, FLIPR TETRA, Bz-ATP stimulation)
Reported pIC50 values for the following compounds.
pIC50 here is simply -log10 of the concentration when that concentration is written in mol/L.

Before answering, review these 5 worked examples.
O=C(NCC(c1scnc1C(F)F)N1CCC(COc2ccc(F)nn2)CC1)c1c(F)cccc1Cl (stereo not shown): 6.99
N#Cc1ccnc(OC2CCN(C(CNC(=O)c3c(F)cccc3Cl)c3scnc3C(F)F)CC2)c1 (stereo not shown): 7.38
O=C(NCC(c1scnc1C(F)F)N1CCC(Oc2ncccc2C(F)(F)F)CC1)c1c(F)cccc1Cl (stereo not shown): 7.25
O=C(NCC(c1scnc1C(F)F)N1CCC(Oc2nccc(Cl)n2)CC1)c1c(F)cccc1Cl (stereo not shown): 7.09
O=C(NCC(c1scnc1C(F)F)N1CCC(COc2cc(C(F)(F)F)ncn2)CC1)c1c(F)cccc1Cl (stereo not shown): 7.35

The compound listed as O=C(NCC(c1scnc1C(F)F)N1CCC(Oc2cncc(F)n2)CC1)c1c(F)cccc1Cl (stereo not shown) shows pIC50 equal to 7.28

The compound listed as N#Cc1cccc(OC2CCN(C(CNC(=O)c3c(F)cccc3Cl)c3scnc3C(F)F)CC2)n1 (stereo not shown) shows pIC50 equal to 7.55

The compound listed as O=C(NCC(c1scnc1C(F)F)N1CCC(Oc2nccs2)CC1)c1c(F)cccc1Cl (stereo not shown) shows pIC50 equal to 6.72

The compound listed as Cc1cnc(F)nc1OC1CCN(C(CNC(=O)c2c(F)cccc2Cl)c2scnc2C(F)F)CC1 (stereo not shown) shows pIC50 equal to 7.47

The compound listed as Cc1nc(C)c(F)c(OC2CCN(C(CNC(=O)c3c(F)cccc3Cl)c3scnc3C(F)F)CC2)n1 (stereo not shown) shows pIC50 equal to 7.19

The compound listed as Cc1noc(C)c1COC1CCN(C(CNC(=O)c2c(F)cccc2Cl)c2scnc2C(F)F)CC1 (stereo not shown) shows pIC50 equal to 7.27

The compound listed as O=C(NCC(c1scnc1C(F)F)N1CCC(COc2cc(F)ccn2)CC1)c1c(F)cccc1Cl (stereo not shown) shows pIC50 equal to 7.46

====

targetOrSystem: P2X7 receptor (Homo sapiens (Human))
Sequence (Q99572 whole entry): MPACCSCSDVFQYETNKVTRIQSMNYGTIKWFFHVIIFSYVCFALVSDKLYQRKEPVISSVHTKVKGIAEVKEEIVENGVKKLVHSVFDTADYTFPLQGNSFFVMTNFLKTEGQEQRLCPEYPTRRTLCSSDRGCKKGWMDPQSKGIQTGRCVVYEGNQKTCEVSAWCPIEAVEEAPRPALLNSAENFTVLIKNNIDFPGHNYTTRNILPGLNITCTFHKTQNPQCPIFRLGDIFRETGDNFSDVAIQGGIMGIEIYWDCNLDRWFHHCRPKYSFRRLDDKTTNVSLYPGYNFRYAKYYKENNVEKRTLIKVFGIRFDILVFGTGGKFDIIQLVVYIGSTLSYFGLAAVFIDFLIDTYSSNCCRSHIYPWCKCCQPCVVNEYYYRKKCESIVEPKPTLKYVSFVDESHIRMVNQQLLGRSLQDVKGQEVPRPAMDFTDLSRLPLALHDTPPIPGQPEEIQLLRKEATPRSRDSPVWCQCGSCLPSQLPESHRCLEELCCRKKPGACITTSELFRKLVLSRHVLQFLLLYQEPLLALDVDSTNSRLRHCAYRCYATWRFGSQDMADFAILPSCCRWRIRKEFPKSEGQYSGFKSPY
testDetails: Human P2X7 channel calcium-influx assay (Fluo-8 NW, FLIPR TETRA, Bz-ATP stimulation)
conditionSet: HEK-293 cells stably transfected with P2X7 receptor, Low Divalent Cation Assay Buffer, read-out: hP2X7 IC50
Reported pIC50 values for the following compounds.
pIC50 here is simply -log10 of the concentration when that concentration is written in mol/L.

The compound listed as O=C(NCC(c1scnc1C(F)F)N1CCC(Oc2cnccn2)CC1)c1c(F)cccc1Cl (stereo not shown) shows pIC50 equal to 7.30

The compound listed as N#Cc1cncc(OCC2CCN(C(CNC(=O)c3c(F)cccc3Cl)c3scnc3C(F)F)CC2)c1 (stereo not shown) shows pIC50 equal to 7.40

The compound listed as Cn1ncc2c(OC3CCN(C(CNC(=O)c4c(F)cccc4Cl)c4scnc4C(F)F)CC3)ncnc21 (stereo not shown) shows pIC50 equal to 7.21

The compound listed as N#Cc1cccc(OC2CCN(C(CNC(=O)c3c(F)cccc3Cl)c3scnc3C(F)F)CC2)n1 (stereo not shown) shows pIC50 equal to 7.55

The compound listed as O=C(NCC(c1scnc1C(F)F)N1CCC(Oc2cncc(F)c2)CC1)c1c(F)cccc1Cl (stereo not shown) shows pIC50 equal to 7.63

The compound listed as Cc1c(F)ncnc1OC1CCN(C(CNC(=O)c2c(F)cccc2Cl)c2scnc2C(F)F)CC1 (stereo not shown) shows pIC50 equal to 7.49

The compound listed as O=C(NCC(c1scnc1C(F)F)N1CCC(Oc2ccncn2)CC1)c1c(F)cccc1Cl (stereo not shown) shows pIC50 equal to 7.14

The compound listed as N#Cc1cnccc1OCC1CCN(C(CNC(=O)c2c(F)cccc2Cl)c2scnc2C(F)F)CC1 (stereo not shown) shows pIC50 equal to 7.40

The compound listed as O=C(NCC(c1scnc1C(F)F)N1CCC(Oc2nnnn2-c2ccccc2)CC1)c1c(F)cccc1Cl (stereo not shown) shows pIC50 equal to 7.24

The compound listed as Cc1nsc(OC2CCN(C(CNC(=O)c3c(F)cccc3Cl)c3scnc3C(F)F)CC2)c1C#N (stereo not shown) shows pIC50 equal to 7.38
